All values here come from patent EP4700022A1.

ASSAY NAME: Pharmacokinetic test in rats
Type: in vivo
ASSAY CONTEXT: rat, po; male SD rats, intragastric administration (10 mg/kg), plasma
The entries below come with measured AUC(0-t) values attached.
Reply numerically in ng·h/mL, unit not repeated.

Observe how each entry below is paired with its result.
# QUERY SMILES, REPORTED PROPERTY, QUANTITATIVE RESULT
measured = [
    ("N#Cc1cc(CN2Cc3ccc(C(F)(F)F)cc3C2)cc2cc(C3CCN(C(=O)OC4CC4)CC3)oc12", "AUC(0-t)", 6750),
    ("O=C(N[C@H]1CC[C@H](CCOc2cc(CN3Cc4ccc(C5CC5)cc4C3)ccn2)CC1)C1CC1", "AUC(0-t)", 27100),
    ("O=C(OC1CC1)N1CCC(CCOc2cc(CN3Cc4ccc(C(F)(F)F)cc4C3)ccn2)CC1", "AUC(0-t)", 4210),
]

Input COc1cc(CN2Cc3ccc(C(F)(F)F)cc3C2)cc2cc(C3CCN(C(=O)OC4CC4)CC3)oc12 . Output AUC(0-t): 5840

---

ASSAY NAME: Pharmacokinetic test in beagle dogs
Assay type: in vivo
ASSAY CONTEXT: dog; male beagle dogs, intravenous administration (1 mg/kg), plasma
REPORTED PROPERTY: AUC(0-t)
Write the figure, then the unit, nothing else.

Input [2H]C([2H])([2H])C(=O)N[C@H]1CC[C@H](c2cc3oc(CN4Cc5ccc(C(F)(F)F)cc5C4)cc(=O)c3o2)CC1 . Output AUC(0-t): 14000 ng·h/mL

---

The entries below come with measured half-life values attached.
ASSAY NAME: Pharmacokinetic test in rats
Type: in vivo
ASSAY CONTEXT: rat; male SD rats, intravenous administration (2.5 mg/kg), plasma
Experimental: 3.1 Experimental animals: Male SD rats (about 220 g, 6-8 weeks old, 6 rats/compound), purchased from Chengdu Dossy Experimental Animals Co., Ltd. 3.2 Experimental design: On the day of the experiment, the SD rats were randomly grouped by body weight. […] Table 3. Administration information Before and after the administration, 0.1 ml of blood was taken from the orbit of the animals under isoflurane anesthesia and placed in an EDTAK2 centrifuge tube. […]
Reply numerically in h, unit not repeated.

Observe how each entry below is paired with its result.
# QUERY SMILES, UNIT ABBREVIATION, half-life
records = [
    ("O=C(N[C@H]1CC[C@H](CCOc2cc(CN3Cc4ccc(C5CC5)cc4C3)ccn2)CC1)C1CC1", "h", 1.75),
    ("[2H]C([2H])([2H])C(=O)N[C@H]1CC[C@H](CCOc2cc(CN3Cc4ccc(C(F)(F)F)cc4C3)ccn2)CC1", "h", 3.81),
    ("O=C(N[C@H]1CC[C@H](CCOc2cc(CN3Cc4ccc(C(F)(F)F)cc4C3)ccn2)CC1)OC1CC1", "h", 8.52),
    ("COc1cc(CN2Cc3ccc(C(F)(F)F)cc3C2)cc2cc(C3CCN(C(=O)OC4CC4)CC3)oc12", "h", 10.3),
    ("O=C(OC1CC1)N1CCC(CCOc2cc(CN3Cc4ccc(C(F)(F)F)cc4C3)ccn2)CC1", "h", 9.77),
    ("O=C(N[C@H]1CC[C@H](CCOc2cc(CN3Cc4ccc(C(F)(F)F)cc4C3)ccn2)CC1)C1CC1", "h", 8.25),
]

Note: attention shifts to another entry.
Input N#Cc1cc(CN2Cc3ccc(C(F)(F)F)cc3C2)cc2cc(C3CCN(C(=O)OC4CC4)CC3)oc12 . Output half-life: 13.2
